Biological target: Growth hormone secretagogue receptor type 1 (Homo sapiens, UniProt Q92847)
Sequence (Q92847 whole entry): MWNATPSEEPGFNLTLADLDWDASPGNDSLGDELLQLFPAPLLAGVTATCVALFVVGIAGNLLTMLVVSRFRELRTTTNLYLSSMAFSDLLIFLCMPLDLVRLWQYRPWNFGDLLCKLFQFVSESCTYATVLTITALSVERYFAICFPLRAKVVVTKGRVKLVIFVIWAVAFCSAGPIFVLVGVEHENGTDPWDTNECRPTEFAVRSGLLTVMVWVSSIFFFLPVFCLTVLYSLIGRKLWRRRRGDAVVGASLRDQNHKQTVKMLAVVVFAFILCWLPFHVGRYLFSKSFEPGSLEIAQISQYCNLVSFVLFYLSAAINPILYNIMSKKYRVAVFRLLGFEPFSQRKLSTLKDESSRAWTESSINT
Assay: Agonist activity at GHSR
EC50 reference

Some solved cases for reference:
MOLECULE: O=C(COc1ccccc1)N(Cc1ccccc1)C[C@H]1CCCN1
OBS VALUE: > 10 µM
--
MOLECULE: CC(Oc1ccccc1Cl)C(=O)N(C[C@H]1CCCN1)c1ccc(Cl)cc1 (some centres not stated)
OBS VALUE: ≥ 10 µM
--
MOLECULE: CCC(Oc1ccccc1)C(=O)N(C[C@H]1CCCN1)c1cccc(OC)c1 (some centres not stated)
OBS VALUE: > 10 µM
--
MOLECULE: CCC(Oc1ccccc1)C(=O)N(C[C@H]1CCCN1)c1cccc(SC)c1 (some centres not stated)
OBS VALUE: > 10 µM

Task item: Looking for the measured EC50 of COc1cccc(N(C[C@H]2CCCN2)C(=O)COc2ccccc2)c1 , can you help?
Reply: > 10 µM

Task item: Next molecule up: CC(Oc1ccccc1Cl)C(=O)N(C[C@H]1CCCN1)c1ccccc1 (some centres not stated)
Reply: ≥ 10 µM

Task item: Next molecule up: O=C(COc1ccccc1)N(C[C@H]1CCCN1)c1ccccc1
Reply: > 10 µM

###

Activity reference
Target: Growth hormone secretagogue receptor type 1 (Homo sapiens, UniProt Q92847)
Assay: Agonist activity at GHSR relative to full agonist
Assay type: functional
Dear colleague, please return just the value in %, with no unit written.

Some solved cases for reference:
COMPOUND: CC(=O)Nc1ccc(N(C[C@H]2CCCN2)C(=O)C(C)Oc2cccc(Cl)c2)cc1 (stereo partly specified)
MEASURED TARGET: Growth hormone secretagogue receptor type 1 (Homo sapiens, UniProt Q92847)
READOUT: Activity
OBS VALUE: 90
--
COMPOUND: CC(Oc1cccc(Cl)c1)C(=O)N(C[C@H]1CCCN1)c1cccc(Cl)c1 (stereo partly specified)
MEASURED TARGET: Growth hormone secretagogue receptor type 1 (Homo sapiens, UniProt Q92847)
READOUT: Activity
OBS VALUE: 110
--
COMPOUND: CC(Oc1cccc(Cl)c1)C(=O)N(C[C@H]1CCCN1)c1ccccc1 (stereo partly specified)
MEASURED TARGET: Growth hormone secretagogue receptor type 1 (Homo sapiens, UniProt Q92847)
READOUT: Activity
OBS VALUE: 60

Task item: Looking for the measured Activity of CC(Oc1ccccc1)C(=O)N(Cc1ccc(Cl)cc1)C[C@H]1CCCN1 (stereo partly specified) , can you help?
Reply: 80

Task item: Next compound up: CC(Oc1cccc(Cl)c1)C(=O)N(Cc1cccc(Cl)c1)C[C@H]1CCCN1 (stereo partly specified)
Reply: 70

###

Molecular target: Growth hormone secretagogue receptor type 1 (Homo sapiens)
Experiment: Binding affinity to GHSR
READOUT: Ki (nM)
Dear colleague, please return just the value in nM, with no unit written.

MOLECULE: CC(=O)Nc1ccc(N(C[C@H]2CCCN2)C(=O)[C@H](C)Oc2cccc(Cl)c2)cc1
READOUT: Ki
OBS VALUE: 250

From here, focus on the item given below.
Task item: Looking for the measured Ki of CC(=O)Nc1ccc(N(C[C@H]2CCCN2)C(=O)C(C)Oc2cccc(Cl)c2)cc1 (some centres undefined) , can you help?
Reply: 260

###

Biological target: Growth hormone secretagogue receptor type 1 (Homo sapiens, UniProt Q92847)
Experiment: Agonist activity at GHSR relative to full agonist
Assay type: functional
READOUT: Activity (%)
Dear colleague, please return just the value in %, with no unit written.

Some solved cases for reference:
MOLECULE: CC(Oc1cccc(Cl)c1)C(=O)N(C[C@H]1CCCN1)c1ccccc1Cl (stereo partly specified)
Activity [%]: 70
--
MOLECULE: CC(Oc1cccc(Cl)c1)C(=O)N(Cc1ccccc1Cl)C[C@H]1CCCN1 (stereo partly specified)
Activity [%]: 80
--
MOLECULE: CC(=O)Nc1ccc(N(C[C@H]2CCCN2)C(=O)[C@@H](C)Oc2cccc(Cl)c2)cc1
Activity [%]: 100

Task item: Requested read-out Activity, target or system Growth hormone secretagogue receptor type 1 (Homo sapiens, UniProt Q92847), entry CC(Oc1ccccc1Cl)C(=O)N(Cc1cccc(Cl)c1)C[C@H]1CCCN1 (stereo partly specified)
Reply: 90

Task item: Next molecule up: CC(=O)Nc1ccc(N(C[C@H]2CCCN2)C(=O)[C@H](C)Oc2cccc(Cl)c2)cc1
Reply: 100

Task item: Next molecule up: CC(Oc1ccccc1)C(=O)N(C[C@H]1CCCN1)c1ccc(Cl)cc1 (stereo partly specified)
Reply: 80

Task item: Next molecule up: CC(Oc1ccccc1Cl)C(=O)N(Cc1ccc(Cl)cc1)C[C@H]1CCCN1 (stereo partly specified)
Reply: 80

Task item: Next molecule up: Cc1ccccc1CN(C[C@H]1CCCN1)C(=O)C(C)Oc1ccccc1Cl (stereo partly specified)
Reply: 90

Task item: Next molecule up: CC(=O)Nc1cccc(N(C[C@H]2CCCN2)C(=O)C(C)Oc2cccc(Cl)c2)c1 (stereo partly specified)
Reply: 60

Task item: Next molecule up: Cc1cccc(CN(C[C@H]2CCCN2)C(=O)C(C)Oc2ccccc2)c1 (stereo partly specified)
Reply: 90

Task item: Next molecule up: CC(Oc1cccc(Cl)c1)C(=O)N(C[C@H]1CCCN1)c1ccc(Cl)cc1 (stereo partly specified)
Reply: 90
